molecular target: T1, complement component 3 (C3) (UniProt P01024 23-1663); test: ITC, binder titrated into target
T1 construct: Purified bought protein; native C3 is a disulfide-linked two-chain protein made from one precursor
T1 sequence (P01024 23-1663 limits assumed): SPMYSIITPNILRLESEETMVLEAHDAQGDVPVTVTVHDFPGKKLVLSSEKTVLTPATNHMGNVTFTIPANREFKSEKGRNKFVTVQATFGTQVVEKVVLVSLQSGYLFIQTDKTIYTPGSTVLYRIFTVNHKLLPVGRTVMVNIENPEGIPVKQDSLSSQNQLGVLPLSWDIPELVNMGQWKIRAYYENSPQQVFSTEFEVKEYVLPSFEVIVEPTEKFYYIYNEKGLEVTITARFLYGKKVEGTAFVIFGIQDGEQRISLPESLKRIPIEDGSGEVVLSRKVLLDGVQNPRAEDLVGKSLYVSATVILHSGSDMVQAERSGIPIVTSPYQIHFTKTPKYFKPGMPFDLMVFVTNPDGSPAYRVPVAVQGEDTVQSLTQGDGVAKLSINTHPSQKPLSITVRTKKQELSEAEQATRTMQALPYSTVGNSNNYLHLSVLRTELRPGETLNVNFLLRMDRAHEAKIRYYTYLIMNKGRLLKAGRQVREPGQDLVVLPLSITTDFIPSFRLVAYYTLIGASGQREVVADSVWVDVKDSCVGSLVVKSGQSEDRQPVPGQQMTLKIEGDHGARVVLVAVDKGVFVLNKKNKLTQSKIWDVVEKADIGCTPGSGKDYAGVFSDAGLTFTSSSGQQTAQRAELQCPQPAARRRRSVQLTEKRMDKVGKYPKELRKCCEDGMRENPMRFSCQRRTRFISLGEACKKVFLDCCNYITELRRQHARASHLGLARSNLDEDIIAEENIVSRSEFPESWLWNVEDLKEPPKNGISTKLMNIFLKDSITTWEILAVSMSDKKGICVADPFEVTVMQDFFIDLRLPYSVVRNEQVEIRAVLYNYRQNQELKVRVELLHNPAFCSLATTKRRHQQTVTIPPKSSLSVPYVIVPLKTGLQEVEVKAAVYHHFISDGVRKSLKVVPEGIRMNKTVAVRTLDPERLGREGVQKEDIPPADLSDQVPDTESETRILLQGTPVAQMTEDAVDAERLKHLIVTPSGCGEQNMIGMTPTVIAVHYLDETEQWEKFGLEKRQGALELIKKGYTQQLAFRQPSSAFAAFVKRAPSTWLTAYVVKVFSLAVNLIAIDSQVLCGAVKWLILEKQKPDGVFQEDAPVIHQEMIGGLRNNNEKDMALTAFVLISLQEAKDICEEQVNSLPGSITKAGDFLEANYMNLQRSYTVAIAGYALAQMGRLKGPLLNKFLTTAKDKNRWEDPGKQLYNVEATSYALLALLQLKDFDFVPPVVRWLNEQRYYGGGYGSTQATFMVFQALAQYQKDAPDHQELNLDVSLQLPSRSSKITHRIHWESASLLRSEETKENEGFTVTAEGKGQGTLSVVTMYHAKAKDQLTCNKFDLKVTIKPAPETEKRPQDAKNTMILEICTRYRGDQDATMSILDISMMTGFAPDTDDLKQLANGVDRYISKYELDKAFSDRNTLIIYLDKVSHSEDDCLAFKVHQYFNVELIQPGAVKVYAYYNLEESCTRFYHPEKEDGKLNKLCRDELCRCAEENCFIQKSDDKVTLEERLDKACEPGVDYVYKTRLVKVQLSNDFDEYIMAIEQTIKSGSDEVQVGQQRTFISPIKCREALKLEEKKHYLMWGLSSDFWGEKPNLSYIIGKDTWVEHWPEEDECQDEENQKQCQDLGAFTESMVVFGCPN
pKd values for the binders below.
// pKd here means minus log10 of the molar concentration (mol/L)

binder="polypeptide comprising the amino acid sequence of SEQ ID NO: 34 (designed binder) MVKVKFDATGEEKEVETSKISAVYRTGKDVLFSYDDQGKIGWGYVSEKDAPKELLDLLARAEREK" value_kind=pKd meas_value=8.89

Which pKd is listed for polypeptide having the amino acid sequence of SEQ ID NO: 27 (designed binder, Sac7d variant (Nanofitin); also called parental clone of cluster 6; Nanofitin) MVKVKFEATGEEKEVDTSKIYQVYRSGKEVLFTYDDNGKTGWGYVSEKDAPKELLDMLARAEREK ?
8.68

Which pKd is listed for polypeptide comprising the amino acid sequence of SEQ ID NO: 33 (designed binder) MVKVKFAATGEEKEVETSKIANVYRVGKDVLFSYDDQGKIGWGYVSEKDAPKELLDLLARAEREK ?
8.72

Value source: patent US20250145673A1
